meta.source: patent US20170273922A1

- measurement-notes: MTT assay (cytotoxicity), LNCaP cells
- Type: cell-based
- conditions: human, LNCaP cells, 72 h, Table 2.3
- Procedure: MTT assays: LNCaP, 22Rv1, Du145, H1975, A549, MB231 and MCF-7 cells are maintained in RPMI 1640 supplemented with 10% FBS. Cells were seeded at a density of 6-7×10^3 cells per well in 96-well plates. After overnight incubation, cells in fresh RPMI 1640 supplemented with 10% FBS were exposed to DMSO vehicle control or test compounds at designated concentrations for 72 h. Viable cells were evaluated by MTT assays. Experiments were performed in triplicate and repeated at least twice.
I'd appreciate it if you could supply IC50 at 72 h values for the items below.

Reported IC50 at 72 h, molecule O=C(N/C=C/c1ccccc1C(F)(F)F)Nc1ccc2c(c1)OCO2 : ____
9.5 µM

Again, but for O=C(N/C=C/c1cccc(C(F)(F)F)c1)Nc1cnc2ccccc2c1
> 10 µM

Now consider O=C(N/C=C/c1cccc(C(F)(F)F)c1)Nc1ccc2c(c1)OCO2 .
> 20 µM

---

- Tested on: 22Rv1 cells
- measurement-notes: MTT assay (cytotoxicity), 22Rv1 cells
- Type: cell-based
- conditions: 72 h, Table 2.2
Field: IC50. Provide a value for each of the compounds that follow.
The reply should contain only the number, in µM.

Reported IC50, compound N#Cc1ccc(NC(=O)N/C=C/c2cccc(F)c2)cc1C(F)(F)F : ____
3.2

Try this compound next: O=C(N/C=C/c1cccc(F)c1)Nc1cccc(C(F)(F)F)c1
8.2

Please give the result for O=C(N/C=C/c1cccc(C(F)(F)F)c1)Nc1ccc(-n2ccnc2)cc1 too.
18.4

And then N#Cc1ccc(NC(=O)N/C=C/c2cccc(C(F)(F)F)c2)cc1 , what is it?
3.6

---

Kindly state IC50 at 72 h for each of the entries shown.
- measurement-notes: MTT assay (cytotoxicity), MB231 cells
- Format: cell-based
- conditions: human, 72 h treatment, Table 6.1
Numbers only here, please. The scale is µM.

Looking for the measured IC50 at 72 h of N#Cc1ccc(NC(=O)N/C=C/c2cccs2)cc1C(F)(F)F , can you help?
7.6

What do we get for O=C(Nc1cccc(C(F)(F)F)c1)Nc1ccc(C(=O)Nc2ccccc2F)c(C(F)(F)F)c1 ?
8.1

Then what about the molecule O=C(Nc1cccc(C(F)(F)F)c1)Nc1ccc(NC(=O)c2ccccc2F)c(C(F)(F)F)c1 ?
4.6

---

- System: LNCaP cells
- measurement-notes: MTT assay (cytotoxicity), LNCaP cells
- Type: cell-based
- conditions: 72 h, Table 2.2
Kindly supply the reported IC50 values for the records listed here.
Respond numerically; units are µM and should not be typed.

Name the recorded IC50 for O=C(N/C=C/c1cccc(OC(F)(F)F)c1)Nc1ccc([N+](=O)[O-])c(C(F)(F)F)c1 .
1.6

Another: N#Cc1ccc(NC(=O)N/C=C/c2cc(C(F)(F)F)ccc2C(F)(F)F)cc1
0.9

Field entry: O=C(N/C=C/c1ccccc1C(F)(F)F)Nc1ccc([N+](=O)[O-])c(C(F)(F)F)c1
9.3

Would you mind doing O=C(N/C=C/c1ccccc1)Nc1cccc(C(F)(F)F)c1 as well?
6.6

---

- measurement-notes: MTT assay (cytotoxicity), 22Rv1 cells
- Assay type: cell-based
- conditions: human, 22Rv1 cells, 72 h treatment, Table 6.1
quantity-kind: IC50 at 72 h (µM)
Your answer is read as µM, so omit the unit and give the number.

Give its IC50 at 72 h value. Item: O=C(Nc1cccc(C(F)(F)F)c1)Nc1ccc(NC(=O)c2ccc(N3CCOCC3)cc2F)c(C(F)(F)F)c1 [Compound 879]
6.8

Input O=C(Nc1ccc(Br)cc1)Nc1cc(F)ccc1NC(=O)c1ccc(F)cc1F [Compound 962]
4.9

Next up: O=C(Nc1cccc(C(F)F)c1)Nc1ccc(NC(=O)c2cc(F)ccc2F)c(C(F)(F)F)c1 [Compound 930]
5.6

Same question for O=C(Nc1cccc(NC(=O)c2cccc(F)c2)c1)Nc1cccc(C(F)(F)F)c1 [Compound 914] please.
8.7
